- System: PC3 PD-L1-overexpressing tumor
- assay.notes: Small-animal PET, uptake in PD-L1-overexpressing tumor
- experimental.conditions: 1–2 h p.i.
reported.metric: % change of SUVmax of the PD-L1 expressing tumor over the mock tumor (%)
Express it in %; write the number only.

-- ask // query % change of SUVmax of the PD-L1 expressing tumor over the mock tumor value for entry Cc1c(COc2cc(OCc3cncc(S(C)(=O)=O)c3)c(CN[C@@H](CS(=O)(=O)O)C(=O)NCCS(=O)(=O)O)cc2Cl)cccc1-c1cccc(OCc2cn(CCCN3CCN(C(=O)[C@H](CS(=O)(=O)O)NC(=O)CC[C@H](C(=O)O)N4CCN(CC(=O)O)CCN(CC(=O)O)CC4)CC3)nn2)c1C.[64Cu+2] [[^64Cu]Cu-3]
-- reply 311

-- ask Value lookup for % change of SUVmax of the PD-L1 expressing tumor over the mock tumor; key = Cc1c(COc2cc(OCc3cncc(S(C)(=O)=O)c3)c(CN[C@@H](CS(=O)(=O)O)C(=O)NCCP(=O)(O)O)cc2Cl)cccc1-c1cccc(OCc2cn(CCCN3CCN(C(=O)CC[C@H](C(=O)O)N4CCN(CC(=O)O)CCN(CC(=O)O)CC4)CC3)nn2)c1C.[64Cu+2] [[^64Cu]Cu-4]
-- reply 146

-- ask For Cc1c(COc2cc(OCc3cncc(S(C)(=O)=O)c3)c(CN[C@@H](CS(=O)(=O)O)C(=O)NCCP(=O)(O)O)cc2Cl)cccc1-c1cccc(OCc2cn(CCCN3CCN(C(=O)[C@H](CS(=O)(=O)O)NC(=O)CC[C@H](C(=O)O)N4CCN(CC(=O)O)CCN(CC(=O)O)CC4)CC3)nn2)c1C.[64Cu+2] [[^64Cu]Cu-5] , what is its reported % change of SUVmax of the PD-L1 expressing tumor over the mock tumor?
-- reply 306

-- ask Bench note: what % change of SUVmax of the PD-L1 expressing tumor over the mock tumor did Cc1c(COc2cc(OCc3cncc(S(C)(=O)=O)c3)c(CN[C@@H](CS(=O)(=O)O)C(=O)NCCP(=O)(O)O)cc2Cl)cccc1-c1cccc(OCc2cn(CCCN3CCN(C(=O)[C@H](CP(=O)(O)O)NC(=O)CC[C@H](C(=O)O)N4CCN(CC(=O)O)CCN(CC(=O)O)CC4)CC3)nn2)c1C.[64Cu+2] [[^64Cu]Cu-6] show?
-- reply 121

* * *

Give measured SUVmax PC3 PD-L1 overexpressing tumor +block for each item. Keep answers brief.
- Tested on: PC3 PD-L1-overexpressing tumor
- assay.notes: Small-animal PET, uptake in PD-L1-overexpressing tumor
- experimental.conditions: 4.5 (4–5) hours p.i.; blocker i.v. before tracer: Cu-1 100 nmol 1, Cu-2 100 nmol 2, Cu-3 1000 nmol 4, Cu-4 500 nmol 4, Cu-6 250 nmol 1 (~5 min prior), Cu-5 100 nmol 5 (~30 min prior)
Simply state the number, no unit and no words.

-- ask Can you look up the measured SUVmax PC3 PD-L1 overexpressing tumor +block of Cc1c(COc2cc(OCc3cncc(S(C)(=O)=O)c3)c(CN[C@@H](CS(=O)(=O)O)C(=O)NCCS(=O)(=O)O)cc2Cl)cccc1-c1cccc(OCc2cn(CCCN3CCN(C(=O)[C@H](CS(=O)(=O)O)NC(=O)CC[C@H](C(=O)O)N4CCN(CC(=O)O)CCN(CC(=O)O)CC4)CC3)nn2)c1C.[64Cu+2] [[^64Cu]Cu-3] for me?
-- reply 0.7

-- ask Record request: SUVmax PC3 PD-L1 overexpressing tumor +block value, item Cc1c(COc2cc(OCc3cncc(S(C)(=O)=O)c3)c(CN[C@@H](CS(=O)(=O)O)C(=O)NCCP(=O)(O)O)cc2Cl)cccc1-c1cccc(OCc2cn(CCCN3CCN(C(=O)[C@H](CS(=O)(=O)O)NC(=O)CC[C@H](C(=O)O)N4CCN(CC(=O)O)CCN(CC(=O)O)CC4)CC3)nn2)c1C.[64Cu+2] [[^64Cu]Cu-5]
-- reply 1.65

-- ask Returns the measured SUVmax PC3 PD-L1 overexpressing tumor +block for the input compound. Input: Cc1c(COc2cc(OCc3cncc(S(C)(=O)=O)c3)c(CN[C@@H](CS(=O)(=O)O)C(=O)NCCP(=O)(O)O)cc2Cl)cccc1-c1cccc(OCc2cn(CCCN3CCN(C(=O)CC[C@H](C(=O)O)N4CCN(CC(=O)O)CCN(CC(=O)O)CC4)CC3)nn2)c1C.[64Cu+2] [[^64Cu]Cu-4]
-- reply 1.05

-- ask Recorded SUVmax PC3 PD-L1 overexpressing tumor +block of Cc1c(COc2cc(OCc3cncc(C#N)c3)c(CN[C@@H](CS(=O)(=O)O)C(=O)NCCS(=O)(=O)O)cc2Cl)cccc1-c1cccc(OCc2cn(CCCN3CCN(C(=O)[C@H](CS(=O)(=O)O)NC(=O)CC[C@H](C(=O)O)N4CCN(CC(=O)O)CCN(CC(=O)O)CC4)CC3)nn2)c1C.[64Cu+2] [[^64Cu]Cu-1] , please.
-- reply 1.0

-- ask I have this compound here, Cc1c(COc2cc(OCc3cncc(S(C)(=O)=O)c3)c(CN[C@@H](CS(=O)(=O)O)C(=O)NCCP(=O)(O)O)cc2Cl)cccc1-c1cccc(OCc2cn(CCCN3CCN(C(=O)[C@H](CP(=O)(O)O)NC(=O)CC[C@H](C(=O)O)N4CCN(CC(=O)O)CCN(CC(=O)O)CC4)CC3)nn2)c1C.[64Cu+2] [[^64Cu]Cu-6] , and I need its recorded SUVmax PC3 PD-L1 overexpressing tumor +block.
-- reply 1.8
